Measured values drawn from paper PMC4890880 for this set.

- Test system: HepG2-A16-CD81EGFP cells
- Protocol notes: cells
- Cond: Homo sapiens, HepG2, read-out: Tox max inhibition (%) @ 50 uM
Label Condition met when inhibition at 50 µM is at or above 30%; anything below gets Condition not met.

Asked: Is it the case that N=c1c2ccccc2nnn1-c1cccc(C(F)(F)F)c1 has inhibition at 50 µM reaching or exceeding 30%?
Given back: Condition not met

Asked: Is it the case that CCOc1ccc(CCNC(=O)c2cccs2)cc1OCC has inhibition at 50 µM reaching or exceeding 30%?
Given back: Condition not met

Asked: Is it the case that c1ccc(Cn2c(N=Nc3c(Nc4ccccc4)ccc4ccccc34)nc3ccccc32)cc1 has inhibition at 50 µM reaching or exceeding 30%?
Given back: Condition met

Asked: Is it the case that Cc1ccnc(NC(c2cccc(OCc3ccccc3)c2)c2ccc3cccnc3c2O)c1 (stereo not drawn) has inhibition at 50 µM reaching or exceeding 30%?
Given back: Condition met

Asked: Is it the case that CCOC(=O)C1=CN(C)C=C(C(=O)OCC)C1c1cc(Br)c(OCC)c(OC)c1 has inhibition at 50 µM reaching or exceeding 30%?
Given back: Condition met

Asked: Is it the case that COc1ccc(-c2nc(N3CCN(C(=O)C4CCCCC4)CC3)c3c4c(sc3n2)CCCC4)cc1 has inhibition at 50 µM reaching or exceeding 30%?
Given back: Condition met

Asked: Is it the case that COc1ccc(C(=O)C(CCC(CNC(C)(C)C)C(=O)c2ccc(OC)cc2)CNC(C)(C)C)cc1 (stereo not drawn) has inhibition at 50 µM reaching or exceeding 30%?
Given back: Condition met

---

- Test system: Plasmodium berghei (Pb-Luc) exoerythrocytic-stage parasites
- Protocol notes: microbe, parasite or virus in culture
- Cond: read-out: Inhibition% @ 50 uM rep2
Listed molecules paired with reported inhibition at 50 µM
Entry rule: numbers only, all in %.

Example entries and their recorded answers appear below.
CCOc1ccc2c(c1)CN(Cc1ccc(Cl)cc1)CO2 [MMV000443] ... 104
COc1ccccc1CNC(=O)CCn1c(=O)[nH]c2ccccc2c1=O [MMV665916] ... 99
C=C(C)CCC(C)N1CCC(N2CCC(C(=O)NCCc3ccccc3)CC2)CC1 (centres unmarked) [MMV666110] ... 99
Cc1ccc(CSCc2ccc(C(=O)NC3CC3)o2)cc1 [MMV007571] ... 103
CCc1ccc(CNCC(O)c2ccccc2)cc1 (centres unmarked) [MMV665812] ... 99

Asked: Quick check: inhibition at 50 µM of COc1ccc(CNC2CCN(c3ccc(NC(=O)c4cccc(Cl)c4)cc3)CC2)cc1OC [MMV666067] ?
Given back: 99

Asked: Quick check: inhibition at 50 µM of CCN1CCN(c2cc(C)c3cc(NC(=O)c4ccc(OC)c(OC)c4)ccc3n2)CC1 [MMV019074] ?
Given back: 104

Asked: Quick check: inhibition at 50 µM of CCOC(=O)C1=C(C)N=c2sc(=Cc3cc(Cl)ccc3O)c(=O)n2C1c1ccc(OC)cc1 (centres unmarked) [MMV665971] ?
Given back: 104

Asked: Quick check: inhibition at 50 µM of CCCCc1c(C)nc2c(OC)cccc2c1O [MMV006820] ?
Given back: 102

Asked: Quick check: inhibition at 50 µM of O=C(NNc1cc(N2CCCC2)nc(N2CCCC2)n1)c1ccccc1 [MMV396770] ?
Given back: 98

Asked: Quick check: inhibition at 50 µM of CC(C)OCc1cc(CN2CCN(c3cccc(Cl)c3)CC2)c(O)c2ncccc12 [MMV000788] ?
Given back: 106

Asked: Quick check: inhibition at 50 µM of N=c1n(CCN2CCCCC2)c2ccccc2n1CC(O)c1cccc(Br)c1 (centres unmarked) [MMV665902] ?
Given back: 105

Asked: Quick check: inhibition at 50 µM of CCN(CC)CCNc1ccnc2cc3ccccc3cc12 [MMV006303] ?
Given back: 103

Asked: Quick check: inhibition at 50 µM of O=C(NCCCN1CCC(N2CCCCC2)CC1)C1=Cc2cc(Br)ccc2OC1 [MMV019995] ?
Given back: 102

Asked: Quick check: inhibition at 50 µM of CC1CN(C(=O)c2sc3ccccc3c2Cl)CC(C)O1 (centres unmarked) [MMV020492] ?
Given back: 44

Asked: Quick check: inhibition at 50 µM of COc1ccc(-c2cc3c(SCC(=O)Nc4cc(C(F)(F)F)ccc4Cl)nccn3n2)cc1 [MMV396679] ?
Given back: 103

Asked: Quick check: inhibition at 50 µM of O=C(CCl)NCCOc1ccc(Cl)cc1Cl [MMV665927] ?
Given back: 99

---

- Tested on: Plasmodium berghei (Pb-Luc) exoerythrocytic-stage parasites
- Protocol notes: microbe, parasite or virus in culture
- Cond: read-out: Inhibition% @ 50 uM rep2
Endpoint name: inhibition at 50 µM (%)
Entry rule: numbers only, all in %.

CCCc1c(CC)c(=N)c2ccccc2n1C ... 104
O=[N+]([O-])c1ccc(C=NNc2nc3ccccc3[nH]2)cc1 ... -99
CCN(CC)CCCNc1ccnc2cc3ccccc3cc12 ... 95
Oc1ccccc1CN1CCC2(CCCN(Cc3ccccc3F)C2)C1 (centres unmarked) ... 100
COc1ccc(CCNC(=O)c2cc(S(=O)(=O)N3CC(C)CC(C)C3)ccc2Sc2ccc(F)cc2)cc1OC (centres unmarked) ... 15
OC(CNCC1CCCO1)Cn1c2ccc(Cl)cc2c2cc(Cl)ccc21 (centres unmarked) ... 101
COc1cc(SC)ccc1C(=O)N1CCCC(C)C1 (centres unmarked) ... 93
N#Cc1nc(Cc2cccc3ccccc23)oc1N1CCN(C(c2ccccc2)c2ccccc2)CC1 ... 92

Asked: Quick check: inhibition at 50 µM of COc1ccc(C2c3ccc4ccccc4c3Oc3ncn(CCCn4ccnc4)c(=N)c32)cc1OC (centres unmarked) ?
Given back: 104

Asked: Quick check: inhibition at 50 µM of COc1ccc2nc(C)cc(Nc3cccc(O)c3)c2c1 ?
Given back: 102

Asked: Quick check: inhibition at 50 µM of COc1ccccc1C(=O)ON=C(N)Cc1cccc2ccccc12 ?
Given back: 104

Asked: Quick check: inhibition at 50 µM of COCCn1c(C)nc2ccccc2c1=O ?
Given back: 102

Asked: Quick check: inhibition at 50 µM of CCc1ccc(Nc2cc(C)c3ccc(O)cc3n2)cc1 ?
Given back: 105

Asked: Quick check: inhibition at 50 µM of CCN1CCN(c2c(C(=O)c3ccccc3)cnc3cc(OC)c(OC)cc23)CC1 ?
Given back: 103

Asked: Quick check: inhibition at 50 µM of COc1ccc(CCn2c(=N)c(C(=O)NCc3cccnc3)cc3c(=O)n4cccc(C)c4nc32)cc1 ?
Given back: 83

---

- System: Plasmodium berghei (Pb-Luc) exoerythrocytic-stage parasites
- Protocol notes: microbe, parasite or virus in culture
- Cond: read-out: Inhibition% @ 50 uM rep2
Listed compounds paired with reported inhibition at 50 µM
Entry rule: numbers only, all in %.

CCOC(=O)c1c(C)n(-c2ccccc2)c2ccc(OC(=O)c3cc(OC)c(OC)c(OC)c3)cc12 [MMV396664] ... 101
COc1ccc(Nc2cc(C)nc(NCc3ccccc3)n2)cc1 [MMV006825] ... 100
CC(C)CCNCC(O)Cn1c2ccccc2c2ccccc21 (stereo not drawn) [MMV006787] ... 103
COc1ccc(Br)cc1C1Nc2ccc3ccccc3c2C2=C1C(=O)CC(c1ccccc1)C2 (stereo not drawn) [MMV020885] ... 102
CN1c2ccccc2N(C)C1c1ccc2c(c1)OCO2 [MMV666009] ... 105

Asked: Quick check: inhibition at 50 µM of COc1ccc(CNC(=O)c2cc3c(=O)n4ccccc4nc3n(CCc3ccccc3)c2=N)cc1 [MMV665881] ?
Given back: 76

Asked: Quick check: inhibition at 50 µM of O=C(Nc1ccc(Br)cc1)Nc1cccc(Cl)c1 [MMV001318] ?
Given back: 102

Asked: Quick check: inhibition at 50 µM of OC1CCCCC1C1(NC(=S)Nc2ccccc2)CCCCC1 (stereo not drawn) [MMV665980] ?
Given back: 104

Asked: Quick check: inhibition at 50 µM of Cc1ccc(C(=O)c2oc3ccc4c(C)cc(=O)oc4c3c2C)cc1 [MMV086103] ?
Given back: 103

---

- Tested on: Plasmodium berghei (Pb-Luc) exoerythrocytic-stage parasites
- Protocol notes: microbe, parasite or virus in culture
- Cond: read-out: Inhibition% @ 50 uM rep2
Listed compounds paired with reported inhibition at 50 µM
Entry rule: numbers only, all in %.

Example entries and their recorded answers appear below.
COc1ccc(C(O)(CCC(C)C)C(CN2CCOCC2)c2ccc(Cl)cc2)cc1 (stereo not shown) [MMV000617] ... 103
Cc1ccc(N2C3c4ccccc4N(S(=O)(=O)c4ccc(C)cc4)C2c2ccccc2N3S(=O)(=O)c2ccc(C)cc2)cc1 [MMV007160] ... 105
COc1cc(-c2nc(-c3ccccc3)c(-c3ccccc3)[nH]2)cc(OC)c1O [MMV020750] ... 104

Asked: Quick check: inhibition at 50 µM of COc1ccc(C=C2SC(=N)N(c3ccccc3OC)C2=O)cc1 [MMV666691] ?
Given back: 104

Asked: Quick check: inhibition at 50 µM of CC(C)c1ccc(CNCC(O)c2ccccc2)cc1 (stereo not shown) [MMV001049] ?
Given back: 102
